TEST TARGET: human recombinant TYK2 protein (Homo sapiens, UniProt P29597)
Construct: purchased Carna Biosciences 08-147
Sequence (P29597 871-1187 limits assumed): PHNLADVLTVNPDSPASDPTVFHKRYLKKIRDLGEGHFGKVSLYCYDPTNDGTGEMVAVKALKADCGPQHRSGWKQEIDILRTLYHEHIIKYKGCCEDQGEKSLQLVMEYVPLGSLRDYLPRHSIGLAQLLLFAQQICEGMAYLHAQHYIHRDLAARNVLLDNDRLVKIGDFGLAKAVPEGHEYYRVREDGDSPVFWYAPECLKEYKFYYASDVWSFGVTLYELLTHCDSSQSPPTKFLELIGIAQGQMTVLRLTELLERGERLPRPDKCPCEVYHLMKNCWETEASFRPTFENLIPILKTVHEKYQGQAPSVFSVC
ASSAY PROTOCOL: TYK2 Inhibition Assay (HTRF kinase assay)
Type: biochemical
DETAILS: human recombinant TYK2, 11.25 μM ATP substrate solution
PROPERTY MEASURED: IC50 (nM)

Use these answered entries as a reference point.
{"COMPOUND": "Cn1cc(Nc2ncc(Cl)c(N3C[C@]4(C)CN(c5ccno5)C[C@]4(C)C3)n2)cn1", "OBSERVED MEASUREMENT": 0.2}
{"COMPOUND": "CC(=O)N1C[C@@]2(C)CN(c3nc(Nc4cnn(C)c4)ncc3Cl)C[C@@]2(C)C1", "OBSERVED MEASUREMENT": 14}

A. C[C@@]12CN(C(=O)[C@@H]3CC3(F)F)C[C@]1(C)CN(c1nc(Nc3cn[nH]c3)ncc1Cl)C2
B. Cn1cc(Nc2nccc(N3C[C@]4(C)CN(C(=O)NCC#N)C[C@]4(C)C3)n2)cn1
C. CCNC(=O)c1ccc(Nc2ncc(F)c(N3C[C@H]4CN(C(=O)C5CC5(F)F)C[C@H]4C3)n2)cc1 (stereo partly shown)
D. Cc1cnc(Nc2cnn(C)c2)nc1N1C[C@@H]2CN(Cc3ccno3)C[C@]2(C)C1 (racemic)
E. CN1CCN(C(=O)c2ccc(Nc3ncc(Cl)c(N4C[C@]5(C)CN(C(=O)C6CC6)C[C@]5(C)C4)n3)cn2)CC1
Sort by IC50, descending. Give the order by naming the labels one after another as requested.
B, C, E, D, A
(B: 66 nM, C: 13 nM, E: 5 nM, D: 3.3 nM, A: 0.4 nM)
